Every entry's value here was drawn from paper PMC9035832.

target: integrin αVβ3 (Homo sapiens, UniProt P05106+P06756); construct: using the isolated extracellular domain of integrins αVβ3 and α5β1; purchased Sino Biological; assay: ELISA-like competitive integrin binding assay (vitronectin-coated plates)
pIC50 reference
Here pIC50 is given on a logarithmic scale as minus log10 of the concentration in mol/L.

Some solved entries appear below for comparison.
- [N-]=[N+]=NCCOCCOCCOc1ccc(C(=O)N[C@@H](Cc2ccc(OCCCCCNC3=NCCN3)cc2)C(=O)O)cc1 [10c]: 7.68
- O=C(N[C@@H](Cc1ccc(OCCCCCNc2ncccn2)cc1)C(=O)O)OCc1ccccc1: 5.58

Sample O=C(N[C@@H](Cc1ccc(OCCCNC2=NCCN2)cc1)C(=O)O)OCc1ccccc1 ; pIC50 observed: 8.88

Sample [N-]=[N+]=NCCOCCOCCOc1ccc(C(=O)N[C@@H](Cc2ccc(OCCCCNC3=NCCN3)cc2)C(=O)O)cc1 [10b] ; pIC50 observed: 6.89

Sample O=C(N[C@@H](Cc1ccc(OCCCNC2=NCCCN2)cc1)C(=O)O)c1cccc(O)c1 ; pIC50 observed: 6.34

Sample O=C(N[C@@H](Cc1ccc(OCCCNC2=NCCN2)cc1)C(=O)O)c1cccc(O)c1 ; pIC50 observed: 8.03

Sample O=C(N[C@@H](Cc1ccc(OCCCCNC2=NCCCN2)cc1)C(=O)O)c1cccc(O)c1 ; pIC50 observed: 7.04

Sample O=C(N[C@@H](Cc1ccc(OCCCNC2=NCCN2)cc1)C(=O)O)c1ccccc1 ; pIC50 observed: 7.41

* * *

test system: WM115 cells; test: Cell viability assay (resazurin based); settings: 3 days incubation, resazurin, read-out: Cytotoxicity IC50
measurement_kind: pIC50
Here pIC50 is given on a logarithmic scale as minus log10 of the concentration in mol/L.

Reading of pIC50 for CC[C@H](C)[C@@H]([C@@H](CC(=O)N1CCC[C@H]1[C@H](OC)[C@@H](C)C(=O)N[C@H](C)[C@@H](O)c1ccccc1)OC)N(C)C(=O)[C@@H](NC(=O)[C@H](C(C)C)N(C)C(=O)OCc1ccc(NC(=O)[C@H](C)NC(=O)[C@@H](NC(=O)[C@H](CCC(=O)O)NC(=O)CCCc2cn(CCOCCOCCNC(=O)CCC(=O)NCCCC[C@@H]3NC(=O)[C@@H](Cc4ccccc4)NC(=O)[C@H](CC(=O)O)NC(=O)CNC(=O)[C@H](CCCNC(=N)N)NC3=O)nn2)C(C)C)cc1)C(C)C with WM115 cells: 7.04

* * *

biological target: integrin αVβ3 (Homo sapiens, UniProt P05106+P06756); construct: using the isolated extracellular domain of integrins αVβ3 and α5β1; purchased Sino Biological; test: ELISA-like competitive integrin binding assay (vitronectin-coated plates)
pIC50: −log10 of the molar value.
Classify by measured pIC50: True if it is equal to or exceeds 7, False if it is smaller.

Solved cases below.
* O=C(N[C@@H](Cc1ccc(OCCCCCNC2=NCCN2)cc1)C(=O)O)c1ccccc1 [7aa] | True
* O=C(N[C@@H](Cc1ccc(OCCCCCNc2ncccn2)cc1)C(=O)O)c1ccc(O)cc1 [7bb] | False
* O=C(N[C@@H](Cc1ccc(OCCCCNC2=NCCN2)cc1)C(=O)O)c1ccc(O)cc1 [6ba] | False

Test whether the compound O=C(N[C@@H](Cc1ccc(OCCCCCNC2=NCCCN2)cc1)C(=O)O)OCc1ccccc1 [7dc] records pIC50 of 7 or higher.
True

Test whether the compound O=C(N[C@@H](Cc1ccc(OCCCNC2=NCCCN2)cc1)C(=O)O)c1ccccc1 [5ac] records pIC50 of 7 or higher.
True
